Below: a set of entries, each annotated with reported IC50.
Target: Lethal factor (Bacillus anthracis)
Sequence (P15917 whole entry): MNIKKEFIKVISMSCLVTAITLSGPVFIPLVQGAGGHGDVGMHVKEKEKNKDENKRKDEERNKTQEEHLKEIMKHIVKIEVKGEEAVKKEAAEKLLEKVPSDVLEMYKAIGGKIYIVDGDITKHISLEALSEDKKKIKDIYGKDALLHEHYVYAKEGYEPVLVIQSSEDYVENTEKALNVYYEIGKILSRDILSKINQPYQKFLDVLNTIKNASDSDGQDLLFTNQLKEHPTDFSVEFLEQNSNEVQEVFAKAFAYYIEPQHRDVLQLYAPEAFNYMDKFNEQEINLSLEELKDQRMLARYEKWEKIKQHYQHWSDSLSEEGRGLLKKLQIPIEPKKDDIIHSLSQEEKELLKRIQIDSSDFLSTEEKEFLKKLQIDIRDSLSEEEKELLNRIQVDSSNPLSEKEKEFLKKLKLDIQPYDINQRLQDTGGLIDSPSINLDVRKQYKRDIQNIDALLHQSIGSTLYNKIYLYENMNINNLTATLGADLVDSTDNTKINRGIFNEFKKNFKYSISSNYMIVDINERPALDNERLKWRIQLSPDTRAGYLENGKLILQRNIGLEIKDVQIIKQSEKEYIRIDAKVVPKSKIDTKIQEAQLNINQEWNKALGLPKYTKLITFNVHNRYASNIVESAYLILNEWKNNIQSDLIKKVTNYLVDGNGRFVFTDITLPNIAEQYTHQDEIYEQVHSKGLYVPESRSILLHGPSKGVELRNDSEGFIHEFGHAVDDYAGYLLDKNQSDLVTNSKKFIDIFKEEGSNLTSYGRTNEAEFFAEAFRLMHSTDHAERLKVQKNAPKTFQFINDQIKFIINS
Experiment: Inhibition of Bacillus anthracis Lethal factor after 10 mins by mobility shift protease assay using 8 uM FITC as substrate
quantity measured: IC50 (µM)

{"line notation": "Cc1cc(S(=O)(=O)N(Cc2ccccc2F)[C@H](C)C(=O)NO)ccc1F", "comparator": "=", "result value": 9.5}
{"line notation": "Cc1cc(S(=O)(=O)N(CCOCc2ccccc2)[C@H](C)C(=O)NO)ccc1F", "comparator": "=", "result value": 14}
{"line notation": "CNC(=O)CCCCCCCN([C@H](C)C(=O)NO)S(=O)(=O)c1ccc(F)c(C)c1", "comparator": "=", "result value": 9.3}
{"line notation": "Cc1cc(S(=O)(=O)N(CCCCCCN)[C@H](C)C(=O)NO)ccc1F", "comparator": "=", "result value": 1.1}
{"line notation": "CC(=O)NCCCCCN([C@H](C)C(=O)NO)S(=O)(=O)c1ccc(F)c(C)c1", "comparator": "=", "result value": 4.3}
{"line notation": "Cc1cc(S(=O)(=O)N(Cc2ccc(F)cc2)[C@H](C)C(=O)NO)ccc1F", "comparator": "=", "result value": 11}
{"line notation": "CC(=O)NCCc1ccc(CN([C@H](C)C(=O)NO)S(=O)(=O)c2ccc(F)c(C)c2)cc1", "comparator": "=", "result value": 3.2}
{"line notation": "Cc1cc(S(=O)(=O)N(CCCN)[C@H](C)C(=O)NO)ccc1F", "comparator": "=", "result value": 3.7}
{"line notation": "Cc1cc(S(=O)(=O)N(Cc2ccc(CCNC(=O)OC(C)(C)C)cc2)[C@H](C)C(=O)NO)ccc1F", "comparator": "=", "result value": 2.1}
{"line notation": "CC(=O)NCc1cccc(CN([C@H](C)C(=O)NO)S(=O)(=O)c2ccc(F)c(C)c2)c1", "comparator": "=", "result value": 4.7}
{"line notation": "Cc1cc(S(=O)(=O)N(Cc2c(F)cccc2F)[C@H](C)C(=O)NO)ccc1F", "comparator": "=", "result value": 13}
{"line notation": "Cc1cc(S(=O)(=O)N(Cc2ccc(CCN)cc2)[C@H](C)C(=O)NO)ccc1F", "comparator": "=", "result value": 1.2}
{"line notation": "CC(=O)NCCCN([C@H](C)C(=O)NO)S(=O)(=O)c1ccc(F)c(C)c1", "comparator": "=", "result value": 30}
{"line notation": "CC(=O)NCc1ccc(CN([C@H](C)C(=O)NO)S(=O)(=O)c2ccc(F)c(C)c2)cc1", "comparator": "=", "result value": 3.5}
{"line notation": "Cc1cc(S(=O)(=O)N(Cc2cc(F)cc(F)c2)[C@H](C)C(=O)NO)ccc1F", "comparator": "=", "result value": 7}
{"line notation": "Cc1cc(S(=O)(=O)N(C(C)C)[C@H](C)C(=O)NO)ccc1F", "comparator": ">", "result value": 100}
{"line notation": "CC(=O)Nc1cccc(CN([C@H](C)C(=O)NO)S(=O)(=O)c2ccc(F)c(C)c2)c1", "comparator": "=", "result value": 4.8}
{"line notation": "Cc1cc(S(=O)(=O)N(Cc2cccc(CN)c2)[C@H](C)C(=O)NO)ccc1F", "comparator": "=", "result value": 1.7}
{"line notation": "Cc1cc(S(=O)(=O)N(CCCCCCCC(=O)O)[C@H](C)C(=O)NO)ccc1F", "comparator": "=", "result value": 47}
{"line notation": "Cc1cc(S(=O)(=O)N(CCCCCCCC(=O)OC(C)(C)C)[C@H](C)C(=O)NO)ccc1F", "comparator": "=", "result value": 3.2}
{"line notation": "Cc1cc(S(=O)(=O)N(CCCCN)[C@H](C)C(=O)NO)ccc1F", "comparator": "=", "result value": 1.8}
{"line notation": "Cc1cc(S(=O)(=O)N(Cc2ccc(CNC(=O)OC(C)(C)C)cc2)[C@H](C)C(=O)NO)ccc1F", "comparator": "=", "result value": 3.4}
{"line notation": "Cc1cc(S(=O)(=O)N(Cc2ccc(CN)cc2)[C@H](C)C(=O)NO)ccc1F", "comparator": "=", "result value": 1.3}

---

Biological target: Lethal factor (Bacillus anthracis)
Assay: Inhibition of Bacillus anthracis Lethal factor after 10 mins by mobility shift protease assay using 8 uM FITC as substrate

{"line notation": "CC(=O)NCCCCCCN([C@H](C)C(=O)NO)S(=O)(=O)c1ccc(F)c(C)c1", "IC50": "3.9 µM"}
{"line notation": "Cc1cc(S(=O)(=O)N(CCCCCN)[C@H](C)C(=O)NO)ccc1F", "IC50": "1.3 µM"}
{"line notation": "Cc1cc(S(=O)(=O)N(C)[C@H](C)C(=O)NO)ccc1F", "IC50": "9.6 µM"}
{"line notation": "Cc1cc(S(=O)(=O)N(Cc2ccc(N)cc2)[C@H](C)C(=O)NO)ccc1F", "IC50": "6.4 µM"}
{"line notation": "Cc1cc(S(=O)(=O)N[C@H](C)C(=O)NO)ccc1F", "IC50": "0.5 µM"}

---

Molecular target: Lethal factor (Bacillus anthracis)
Sequence (P15917 whole entry): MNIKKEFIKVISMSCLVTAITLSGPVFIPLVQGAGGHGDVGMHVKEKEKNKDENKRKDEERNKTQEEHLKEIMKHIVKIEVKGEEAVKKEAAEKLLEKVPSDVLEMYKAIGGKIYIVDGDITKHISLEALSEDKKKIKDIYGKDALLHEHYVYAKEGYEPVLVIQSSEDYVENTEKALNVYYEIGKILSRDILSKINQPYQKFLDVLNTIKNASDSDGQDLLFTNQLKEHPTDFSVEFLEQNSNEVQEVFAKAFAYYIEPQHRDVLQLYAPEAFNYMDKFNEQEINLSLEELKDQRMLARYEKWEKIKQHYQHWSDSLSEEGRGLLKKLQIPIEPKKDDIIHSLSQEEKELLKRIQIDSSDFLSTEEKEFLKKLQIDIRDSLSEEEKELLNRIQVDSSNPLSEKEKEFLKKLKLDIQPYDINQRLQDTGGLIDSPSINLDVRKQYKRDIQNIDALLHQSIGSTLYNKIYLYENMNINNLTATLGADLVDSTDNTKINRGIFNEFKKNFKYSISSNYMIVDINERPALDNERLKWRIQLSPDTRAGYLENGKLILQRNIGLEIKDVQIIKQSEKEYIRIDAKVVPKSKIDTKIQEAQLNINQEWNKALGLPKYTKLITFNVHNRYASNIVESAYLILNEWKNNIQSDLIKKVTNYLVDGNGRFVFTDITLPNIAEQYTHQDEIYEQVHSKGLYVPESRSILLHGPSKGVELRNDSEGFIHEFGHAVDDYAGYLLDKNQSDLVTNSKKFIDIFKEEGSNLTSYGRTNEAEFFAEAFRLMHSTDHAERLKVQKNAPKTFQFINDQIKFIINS
Assay: Inhibition of Bacillus anthracis Lethal factor after 5 mins by FRET assay
pIC50: −log10 of the molar value.

{"line notation": "Cc1cc(S(=O)(=O)N(Cc2cccc(CN)c2)[C@H](C)C(=O)NO)ccc1F", "target system": "Lethal factor (Bacillus anthracis)", "comparator": "=", "pIC50": 5.00}
{"line notation": "Cc1cc(S(=O)(=O)N(Cc2ccc(CCN)cc2)[C@H](C)C(=O)NO)ccc1F", "target system": "Lethal factor (Bacillus anthracis)", "comparator": "=", "pIC50": 5.05}
{"line notation": "Cc1cc(S(=O)(=O)N(CCCCN)[C@H](C)C(=O)NO)ccc1F", "target system": "Lethal factor (Bacillus anthracis)", "comparator": "=", "pIC50": 5.13}
{"line notation": "Cc1cc(S(=O)(=O)N(C(C)C)[C@H](C)C(=O)NO)ccc1F", "target system": "Lethal factor (Bacillus anthracis)", "comparator": "<", "pIC50": 4.00}
{"line notation": "Cc1cc(S(=O)(=O)N(Cc2ccc(CCNC(=O)OC(C)(C)C)cc2)[C@H](C)C(=O)NO)ccc1F", "target system": "Lethal factor (Bacillus anthracis)", "comparator": "=", "pIC50": 5.16}
{"line notation": "Cc1cc(S(=O)(=O)N(Cc2ccc(CNC(=O)OC(C)(C)C)cc2)[C@H](C)C(=O)NO)ccc1F", "target system": "Lethal factor (Bacillus anthracis)", "comparator": "=", "pIC50": 4.82}
{"line notation": "Cc1cc(S(=O)(=O)N(Cc2ccc(N)cc2)[C@H](C)C(=O)NO)ccc1F", "target system": "Lethal factor (Bacillus anthracis)", "comparator": "=", "pIC50": 4.54}
{"line notation": "CC(=O)NCCCCCN([C@H](C)C(=O)NO)S(=O)(=O)c1ccc(F)c(C)c1", "target system": "Lethal factor (Bacillus anthracis)", "comparator": "=", "pIC50": 4.72}
{"line notation": "Cc1cc(S(=O)(=O)N(CCCN)[C@H](C)C(=O)NO)ccc1F", "target system": "Lethal factor (Bacillus anthracis)", "comparator": "=", "pIC50": 4.92}
{"line notation": "Cc1cc(S(=O)(=O)N(Cc2ccccc2F)[C@H](C)C(=O)NO)ccc1F", "target system": "Lethal factor (Bacillus anthracis)", "comparator": "=", "pIC50": 4.48}
{"line notation": "Cc1cc(S(=O)(=O)N(Cc2c(F)cccc2F)[C@H](C)C(=O)NO)ccc1F", "target system": "Lethal factor (Bacillus anthracis)", "comparator": "=", "pIC50": 4.38}
{"line notation": "Cc1cc(S(=O)(=O)N(Cc2cc(F)cc(F)c2)[C@H](C)C(=O)NO)ccc1F", "target system": "Lethal factor (Bacillus anthracis)", "comparator": "=", "pIC50": 4.59}
{"line notation": "Cc1cc(S(=O)(=O)N(CCCCCCCC(=O)OC(C)(C)C)[C@H](C)C(=O)NO)ccc1F", "target system": "Lethal factor (Bacillus anthracis)", "comparator": "=", "pIC50": 5.10}
{"line notation": "Cc1cc(S(=O)(=O)N(CCCCCCN)[C@H](C)C(=O)NO)ccc1F", "target system": "Lethal factor (Bacillus anthracis)", "comparator": "=", "pIC50": 5.36}
{"line notation": "Cc1cc(S(=O)(=O)N(C)[C@H](C)C(=O)NO)ccc1F", "target system": "Lethal factor (Bacillus anthracis)", "comparator": "=", "pIC50": 4.43}
{"line notation": "CC(=O)Nc1cccc(CN([C@H](C)C(=O)NO)S(=O)(=O)c2ccc(F)c(C)c2)c1", "target system": "Lethal factor (Bacillus anthracis)", "comparator": "=", "pIC50": 4.68}
{"line notation": "Cc1cc(S(=O)(=O)N(Cc2ccc(F)cc2)[C@H](C)C(=O)NO)ccc1F", "target system": "Lethal factor (Bacillus anthracis)", "comparator": "=", "pIC50": 4.54}
{"line notation": "CC(=O)NCCCN([C@H](C)C(=O)NO)S(=O)(=O)c1ccc(F)c(C)c1", "target system": "Lethal factor (Bacillus anthracis)", "comparator": "=", "pIC50": 3.93}
{"line notation": "Cc1cc(S(=O)(=O)N(CCOCc2ccccc2)[C@H](C)C(=O)NO)ccc1F", "target system": "Lethal factor (Bacillus anthracis)", "comparator": "=", "pIC50": 4.24}
{"line notation": "Cc1cc(S(=O)(=O)N(CCCCCCCC(=O)O)[C@H](C)C(=O)NO)ccc1F", "target system": "Lethal factor (Bacillus anthracis)", "comparator": "=", "pIC50": 4.04}
{"line notation": "Cc1cc(S(=O)(=O)N(CCCCCN)[C@H](C)C(=O)NO)ccc1F", "target system": "Lethal factor (Bacillus anthracis)", "comparator": "=", "pIC50": 5.09}
{"line notation": "CC(=O)NCCCCCCN([C@H](C)C(=O)NO)S(=O)(=O)c1ccc(F)c(C)c1", "target system": "Lethal factor (Bacillus anthracis)", "comparator": "=", "pIC50": 4.85}
{"line notation": "Cc1cc(S(=O)(=O)N[C@H](C)C(=O)NO)ccc1F", "target system": "Lethal factor (Bacillus anthracis)", "comparator": "=", "pIC50": 5.80}
{"line notation": "CC(=O)NCc1cccc(CN([C@H](C)C(=O)NO)S(=O)(=O)c2ccc(F)c(C)c2)c1", "target system": "Lethal factor (Bacillus anthracis)", "comparator": "=", "pIC50": 4.82}
{"line notation": "CNC(=O)CCCCCCCN([C@H](C)C(=O)NO)S(=O)(=O)c1ccc(F)c(C)c1", "target system": "Lethal factor (Bacillus anthracis)", "comparator": "=", "pIC50": 4.72}
{"line notation": "Cc1cc(S(=O)(=O)N(Cc2ccc(CN)cc2)[C@H](C)C(=O)NO)ccc1F", "target system": "Lethal factor (Bacillus anthracis)", "comparator": "=", "pIC50": 5.25}
{"line notation": "CC(=O)NCc1ccc(CN([C@H](C)C(=O)NO)S(=O)(=O)c2ccc(F)c(C)c2)cc1", "target system": "Lethal factor (Bacillus anthracis)", "comparator": "=", "pIC50": 4.80}
{"line notation": "CC(=O)NCCc1ccc(CN([C@H](C)C(=O)NO)S(=O)(=O)c2ccc(F)c(C)c2)cc1", "target system": "Lethal factor (Bacillus anthracis)", "comparator": "=", "pIC50": 4.77}
